// provenance: PubChem BioAssay AID2629

Listing: inhibition of selected compounds
Target: Protein LANA1 (Human herpesvirus 8 type P (isolate GK18)) (UniProt Q9QR71)
Sequence (Q9QR71 whole entry, looked up): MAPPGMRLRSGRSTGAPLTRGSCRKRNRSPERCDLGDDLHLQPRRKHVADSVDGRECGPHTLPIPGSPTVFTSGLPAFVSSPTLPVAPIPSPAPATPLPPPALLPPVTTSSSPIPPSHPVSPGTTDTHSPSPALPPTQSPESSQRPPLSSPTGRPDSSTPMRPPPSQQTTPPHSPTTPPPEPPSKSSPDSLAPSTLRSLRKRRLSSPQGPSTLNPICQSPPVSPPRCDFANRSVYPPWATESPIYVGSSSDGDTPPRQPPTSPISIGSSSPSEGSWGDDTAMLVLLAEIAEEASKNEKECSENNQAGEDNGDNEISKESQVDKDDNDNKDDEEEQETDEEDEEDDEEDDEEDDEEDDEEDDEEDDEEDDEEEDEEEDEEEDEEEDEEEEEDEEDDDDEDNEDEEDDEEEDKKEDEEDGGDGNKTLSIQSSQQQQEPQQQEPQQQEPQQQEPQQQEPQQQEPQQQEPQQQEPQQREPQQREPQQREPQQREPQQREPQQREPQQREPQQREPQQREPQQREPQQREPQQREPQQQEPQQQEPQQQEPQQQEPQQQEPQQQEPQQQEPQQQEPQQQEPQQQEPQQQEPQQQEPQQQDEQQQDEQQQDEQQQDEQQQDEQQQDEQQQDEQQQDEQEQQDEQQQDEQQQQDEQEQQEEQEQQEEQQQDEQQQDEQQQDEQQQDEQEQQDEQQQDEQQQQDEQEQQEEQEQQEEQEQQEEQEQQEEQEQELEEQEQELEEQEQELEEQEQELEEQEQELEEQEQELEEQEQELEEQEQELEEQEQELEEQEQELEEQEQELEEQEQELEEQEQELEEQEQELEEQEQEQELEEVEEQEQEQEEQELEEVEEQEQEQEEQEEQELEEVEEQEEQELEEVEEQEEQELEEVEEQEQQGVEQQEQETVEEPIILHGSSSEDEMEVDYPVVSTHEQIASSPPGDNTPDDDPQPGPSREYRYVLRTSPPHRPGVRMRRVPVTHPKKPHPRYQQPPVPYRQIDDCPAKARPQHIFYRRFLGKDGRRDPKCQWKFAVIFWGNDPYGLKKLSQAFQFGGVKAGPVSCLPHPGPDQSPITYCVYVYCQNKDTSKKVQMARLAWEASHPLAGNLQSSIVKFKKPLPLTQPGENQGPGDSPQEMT
Assay: blockers of LANA interaction with H2A/H2B – biochemical, FP readout, HTS, primary screen (AID 2629)
Conditions: cell-free LANA-H2A/H2B peptide, fluorescence polarization, hits give high values, concentration not given here
The campaign covered roughly 320,000 compounds. About 1,900 (0.59%) were called active. This is one part of a sample in which actives are shown more often than they occur.
outcomeMeasure: inhibition (%)

>>> print(df.to_string())
                                    compound                               studytarget  quantitativeresult
 0  CCN(CC)CCCNC(=S)N(CCO)Cc1cc2cc3c(cc2[nH]c1=O)OCO3  Protein LANA1 (Human herpesvirus 8 type P (isolate GK18)) (UniProt Q9QR71)              -0.647
 1  CCOc1c2ccc(C(=O)NCc3ccc(OC(F)(F)F)cc3)cc2nn1C  Protein LANA1 (Human herpesvirus 8 type P (isolate GK18)) (UniProt Q9QR71)              -0.924
 2  C=CCC[C@H](Cc1ccc(F)cc1)C(=O)OC[C@@H](Cc1c[nH]c2ccccc12)NC(=O)[C@H](CC=C)CC(=O)N[C@H](CO)Cc1ccccc1  Protein LANA1 (Human herpesvirus 8 type P (isolate GK18)) (UniProt Q9QR71)                 145
 3  CC(=O)Nc1cccc(NC(=O)c2c(-c3ccccc3)noc2C)c1  Protein LANA1 (Human herpesvirus 8 type P (isolate GK18)) (UniProt Q9QR71)                18.3
 4      CCCn1nc2cc(C(=O)NCc3ccccc3)ccc2c1OCC  Protein LANA1 (Human herpesvirus 8 type P (isolate GK18)) (UniProt Q9QR71)                3.43
 5     CSc1ccc(Cl)c(C(=O)OCC(=O)N2CCNC2=O)c1  Protein LANA1 (Human herpesvirus 8 type P (isolate GK18)) (UniProt Q9QR71)                2.35
 6       CC(C)Oc1ccc(Oc2ccc(C(F)(F)F)cn2)cc1  Protein LANA1 (Human herpesvirus 8 type P (isolate GK18)) (UniProt Q9QR71)               0.437
 7  O=C(C1=C(O)C(=O)N(Cc2ccccc2)C1c1cccnc1)c1ccco1 (configuration not stated)  Protein LANA1 (Human herpesvirus 8 type P (isolate GK18)) (UniProt Q9QR71)                10.9
 8  Cc1ccc(NC(=O)COc2coc(CN3CCc4ccccc4C3)cc2=O)cc1Cl  Protein LANA1 (Human herpesvirus 8 type P (isolate GK18)) (UniProt Q9QR71)                -6.2
 9  COc1ccc(N2CCN(C(=O)CCNC(=O)c3ccc(Br)cc3)CC2)cc1  Protein LANA1 (Human herpesvirus 8 type P (isolate GK18)) (UniProt Q9QR71)               -8.47
10  O=C(CN1C(=O)CCC1=O)Nc1ccc(S(=O)(=O)N2CCOCC2)cc1  Protein LANA1 (Human herpesvirus 8 type P (isolate GK18)) (UniProt Q9QR71)                1.75
11         Cc1nc(SC(C)C)[nH]c(=O)c1Cc1ccccc1  Protein LANA1 (Human herpesvirus 8 type P (isolate GK18)) (UniProt Q9QR71)                1.02
12  CCOc1cc(C2C(C(=O)c3ccco3)=C(O)C(=O)N2Cc2ccccc2)ccc1O (configuration not stated)  Protein LANA1 (Human herpesvirus 8 type P (isolate GK18)) (UniProt Q9QR71)                2.24
13  CCc1ccc(-c2nc(SCC(=O)NC3CCCC3)n[nH]2)cc1  Protein LANA1 (Human herpesvirus 8 type P (isolate GK18)) (UniProt Q9QR71)                1.39
14  CCOc1c2ccc(C(=O)NCc3ccc4c(c3)OCO4)cc2nn1C  Protein LANA1 (Human herpesvirus 8 type P (isolate GK18)) (UniProt Q9QR71)                19.6
15  CCC(C)[C@H](NC(=O)N1c2ccccc2NC(=O)[C@@H]1C(C)C)C(=O)N[C@@H](Cc1ccccc1)C(=O)O (some centres not stated)  Protein LANA1 (Human herpesvirus 8 type P (isolate GK18)) (UniProt Q9QR71)               0.386
16  O=C(CN1CCN(c2ncccn2)CC1)Nc1ccccc1C(F)(F)F  Protein LANA1 (Human herpesvirus 8 type P (isolate GK18)) (UniProt Q9QR71)               0.982
17  O=C(CN1CCCCCC1)Nc1ccc(S(=O)(=O)N2CCCCC2)cc1  Protein LANA1 (Human herpesvirus 8 type P (isolate GK18)) (UniProt Q9QR71)                7.61
18       O=C(CSc1nnc(-c2ccccc2O)o1)NC1CCCCC1  Protein LANA1 (Human herpesvirus 8 type P (isolate GK18)) (UniProt Q9QR71)                 3.2
19      Oc1ccc(N2CCN(C(=S)NCc3ccccc3)CC2)cc1  Protein LANA1 (Human herpesvirus 8 type P (isolate GK18)) (UniProt Q9QR71)              -0.124
20  Cc1cc(=O)n2nc(N3CCCC(C(=O)N4CCN(C)CC4)C3)sc2n1 (configuration not stated)  Protein LANA1 (Human herpesvirus 8 type P (isolate GK18)) (UniProt Q9QR71)               0.763
21        Oc1ccccc1N1CCN(C(=S)NCc2ccccc2)CC1  Protein LANA1 (Human herpesvirus 8 type P (isolate GK18)) (UniProt Q9QR71)                18.4
